Numbers sourced from PubChem BioAssay (NCI).

Tested on: IGROV1 ovarian
protocol-text: NCI tumour cell line growth inhibition, 48 h; in the data active = GI50 below about 0.43 µM; inactive = the rest
Classes used: active, inactive

{"molecule": "O=C1OCC(c2ccc(O)c(O)c2)=C1c1cc(O)c(O)c(O)c1", "target-or-system": "IGROV1 ovarian", "label-value": "inactive"}
{"molecule": "O=C1Nc2ccc(Cl)cc2/C1=C\\c1c(-c2ccc(F)cc2)nc2ccccn12", "target-or-system": "IGROV1 ovarian", "label-value": "inactive"}
{"molecule": "COc1cc(-c2c3c(cn2S(=O)(=O)c2ccccc2)-c2nc(N)sc2CC3)cc(OC)c1OC", "target-or-system": "IGROV1 ovarian", "label-value": "inactive"}
{"molecule": "Cc1ccc(NS(=O)(=O)c2ccc(-c3cnc(C4CC4)o3)cc2)cc1", "target-or-system": "IGROV1 ovarian", "label-value": "inactive"}
{"molecule": "Cc1ccc(S(=O)(=O)N(C)C)cc1[N+](=O)[O-]", "target-or-system": "IGROV1 ovarian", "label-value": "inactive"}
{"molecule": "Nc1ccccc1C#C/C=C\\C#Cc1ccc(F)cc1F", "target-or-system": "IGROV1 ovarian", "label-value": "inactive"}
{"molecule": "COc1ccc2c(c1)C(=O)c1c-2c(NCCCN(C)C)nc2ccccc12", "target-or-system": "IGROV1 ovarian", "label-value": "inactive"}
{"molecule": "Cc1cc(N(CCCl)CCCl)ccc1C=Nc1cccnc1", "target-or-system": "IGROV1 ovarian", "label-value": "inactive"}
{"molecule": "Brc1c[n+](Cc2ccc3ccccc3c2)cn1Cc1ccc2ccccc2c1", "target-or-system": "IGROV1 ovarian", "label-value": "inactive"}
{"molecule": "COc1ccc(C2C3=C(NC(=O)C2C#N)c2ccc4ccccc4c2OCC3)cc1 (centres undefined)", "target-or-system": "IGROV1 ovarian", "label-value": "inactive"}
{"molecule": "O=C1c2ccn(CCCCN3CCOCC3)c2C(=O)c2c1c(O)c1ccccc1c2O", "target-or-system": "IGROV1 ovarian", "label-value": "inactive"}
{"molecule": "C=CC1CC12C(=O)C1OC2(C)C2C(=O)c3ccccc3C(=O)C12 (centres undefined)", "target-or-system": "IGROV1 ovarian", "label-value": "inactive"}
{"molecule": "COc1ccc(-c2cc3c4c(nc5ccccc5c4c2)CC(c2cc(OC)c(OC)c(OC)c2)O3)cc1 (centres undefined)", "target-or-system": "IGROV1 ovarian", "label-value": "inactive"}
{"molecule": "CCCC[C@@H]1NC(=O)[C@H](CCCCN)NC(=O)[C@H](CCCNC(=N)N)NC(=O)[C@H](CC(C)C)NC(=O)[C@@H](NC(=O)[C@H](Cc2cccc(Cl)c2)NC(=O)[C@@H]2CCCN2C(=O)[C@@H](NC(C)=O)C(C)C)CCSSC[C@@H](C(=O)N[C@@H](CCCCN)C(=O)N2CCC[C@H]2C(=O)N2CCC[C@H]2C(=O)N[C@@H](CCC(=O)O)C(N)=O)NC(=O)[C@H](Cc2ccccc2)NC(=O)[C@H](CO)NC(=O)[C@H](C)NC(=O)[C@@H]2CCCN2C1=O", "target-or-system": "IGROV1 ovarian", "label-value": "inactive"}
{"molecule": "O=C(NCc1cn(Cc2cccc(Oc3ccccc3)c2)nn1)c1cccnc1Nc1ccccc1", "target-or-system": "IGROV1 ovarian", "label-value": "inactive"}
{"molecule": "O=C(CC12CC3CC(CC(C3)C1)C2)NCCOCCOCCNC(=O)c1cc2c(o1)C(=O)c1ccccc1C2=O", "target-or-system": "IGROV1 ovarian", "label-value": "inactive"}
{"molecule": "COc1ccc(/C=C2/CN(C(=O)c3ccccc3F)C/C(=C\\c3ccc(OC)cc3)C2=O)cc1", "target-or-system": "IGROV1 ovarian", "label-value": "inactive"}
{"molecule": "C=C1CC2CC[C@@]34C[C@@H]5O[C@@H]6C(O[C@H]7CC[C@H](CC(=O)OC8[C@@H](C)C9OC%10C[C@]%11(C[C@@H]%12O[C@@]%13(C[C@@H](C)[C@@H]%12O%11)C[C@H](C)[C@@H]%11OC%12CC(C(O)CO)OC%12C[C@@H]%11O%13)OC%10CC9O[C@H]8C[C@H]8O[C@@H](CC[C@@H]1O2)C[C@@H](C)C8=C)O[C@@H]7[C@@H]6O3)C5O4 (some centres undefined)", "target-or-system": "IGROV1 ovarian", "label-value": "active"}
{"molecule": "c1ccc2c(c1)O[As](O[As]1Oc3ccccc3O1)O2", "target-or-system": "IGROV1 ovarian", "label-value": "inactive"}

* * *

System: SF-539 CNS
protocol-text: NCI tumour cell line growth inhibition, 48 h

{"molecule": "COc1ccc(-c2cc3cccc(OC)c3c(=O)o2)cc1OC", "censoring-operator": "=", "TGI (µM)": 22.9}
{"molecule": "COc1ccc(C2CC(c3cc4c(C)c(C(=O)c5ccccc5)oc4cc3O)=Nc3ccccc3S2)cc1OC (centres undefined)", "censoring-operator": ">", "TGI (µM)": 86.2}
{"molecule": "CCOC(=O)C1(Cc2ccc(C)cc2)Cc2ccc(C)cc2C1=O (centres undefined)", "censoring-operator": "=", "TGI (µM)": 58.5}
{"molecule": "CS(=O)(=O)NNS(=O)(=O)c1ccc(Br)cc1", "censoring-operator": ">", "TGI (µM)": 100}
{"molecule": "C[C@]12CC[C@H](O)CC1=CC[C@@H]1[C@@H]2CC[C@]2(C)C(=O)/C(=C/c3cccc(OCCCn4ccnc4)c3)C[C@@H]12", "censoring-operator": "=", "TGI (µM)": 35.5}
{"molecule": "O=c1c2cc([N+](=O)[O-])ccc2n2n1Cc1ccccc1CC2", "censoring-operator": ">", "TGI (µM)": 100}
{"molecule": "COC(=O)Cc1c([C@@H]2Nc3ccccc3[C@H]2CC(=O)OC)[nH]c2ccccc12", "censoring-operator": "=", "TGI (µM)": 67.5}
{"molecule": "CC1=C/C(=C(\\c2ccc(N(C)C)cc2)c2ccc([N+](C)(C)C)cc2)C=CC1=[N+](C)C", "censoring-operator": "=", "TGI (µM)": 34.6}
{"molecule": "CC1=CC[C@@H]2[C@@H](CC[C@@]2(C)O)C(C)(C)[C@H]1CC[C@@H]1[C@@]2(C)CCC(=O)C(C)(C)O[C@@H]2CC[C@]1(C)O", "censoring-operator": "=", "TGI (µM)": 36.5}

* * *

Parameter: TGI. Scope: all listed entries.
Test system: MDA-MB-231 breast
protocol-text: NCI tumour cell line growth inhibition, 48 h

{"compound": "CCCC[C@@H]1NC(=O)[C@H](CCCCN)NC(=O)[C@H](CCCNC(=N)N)NC(=O)[C@H](CC(C)C)NC(=O)[C@@H](NC(=O)[C@H](Cc2cccc(Cl)c2)NC(=O)[C@@H]2CCCN2C(=O)[C@@H](NC(C)=O)C(C)C)CCSSC[C@@H](C(=O)N[C@@H](CCCCN)C(=O)N2CCC[C@H]2C(=O)N2CCC[C@H]2C(=O)N[C@@H](CCC(=O)O)C(N)=O)NC(=O)[C@H](Cc2ccccc2)NC(=O)[C@H](CO)NC(=O)[C@H](C)NC(=O)[C@@H]2CCCN2C1=O", "TGI": "> 50 µM"}
{"compound": "CC(C)C1CN1CC(O)Cn1ccnc1[N+](=O)[O-] (centres undefined)", "TGI": "> 100 µM"}
{"compound": "Cc1nc2sc(C(=O)Nc3cccc4ccccc34)c(N)c2cc1C(C)O (centres undefined)", "TGI": "> 50 µM"}
{"compound": "COC(=O)OC[C@H]1O[C@@H](n2cc(C)c(=O)[nH]c2=O)CC1OC(=O)OC (some centres undefined)", "TGI": "> 100 µM"}
{"compound": "CCCOC(=O)N[C@H]1CCc2c(Br)c(OC)c(OC)c(OC)c2-c2ccc(SC)c(=O)cc21", "TGI": "6.45 µM"}
{"compound": "COc1ccc2c(c1)O/C(=C\\c1cccc(OCC(=O)Nc3nc4ccccc4s3)c1)C2=O", "TGI": "> 23.1 µM"}
{"compound": "c1ccc2c(c1)O[As](O[As]1Oc3ccccc3O1)O2", "TGI": "10.7 µM"}
{"compound": "O=C1C(=O)c2ccc(Br)cc2-c2cc(Br)ccc21", "TGI": "2.54 µM"}
{"compound": "O=c1cnn(C2OC(CO)C(O)C(F)C2O)c(=O)[nH]1 (centres undefined)", "TGI": "> 100 µM"}

* * *

Test system: EKVX NSCLC
protocol-text: NCI tumour cell line growth inhibition, 48 h

{"compound": "C=CC1CC12C(=O)C1OC2(C)C2C(=O)c3ccccc3C(=O)C12 (stereo not given)", "TGI": "> 100 µM"}
{"compound": "CC(C)CN1CN(c2ccccc2)C2(CCN(CC(C)(c3ccc(F)cc3)C3OCCO3)CC2)C1=O (stereo not given)", "TGI": "19.8 µM"}
{"compound": "COc1cc(OC)cc(N2CCC(c3c(N)nc(N)nc3Cl)CC2)c1", "TGI": "> 100 µM"}
{"compound": "Cc1ccc(N=Nc2c(O)c3ccccc3[nH]c2=O)c(S(=O)(=O)N(C)C)c1", "TGI": "> 100 µM"}
{"compound": "Nc1c(Br)cc(-c2cc(Br)c(N)c(Br)c2)cc1Br", "TGI": "> 100 µM"}
{"compound": "O=C1Nc2ccccc2C(=O)OC(Cc2ccccc2)=Nc2ccccc21", "TGI": "> 100 µM"}
{"compound": "Brc1c[n+](Cc2ccc3ccccc3c2)cn1Cc1ccc2ccccc2c1", "TGI": "25 µM"}
{"compound": "CCCCCCCCCCCCCCCC[N+](C)(C)Cc1ccc(C[N+](C)(C)CCCCCCCCCCCCCCCC)cc1", "TGI": "> 100 µM"}
{"compound": "CC1C(c2ccc(N(C)C)cc2)c2cc3c(cc2OC1N1CCCC1)OCO3 (stereo not given)", "TGI": "> 100 µM"}
{"compound": "CSc1n[nH]c(N)c1C(=O)Nc1ccc(Cl)cc1", "TGI": "> 100 µM"}
